- protocolText: chemical genetic growth profiling, strain panel (AID 1159580);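 further: tested at 20 µM; growth read once vehicle control cultures reached saturation at 30 °C; 1 = growth at the plate median or of vehicle wells; lower values mean less growth of the strain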
- conditionLabel: S. cerevisiae deletion strains, growth OD, locus YAL040C, strain CLN3, hits give low values
Hit rate of the full screen: of about 5,500 compounds, about 2,000 (36%) were called active. Another 18% or so got no clear call; they are omitted. Some of the results follow.
This listing pairs molecules with measured normalized growth.

| molecule | normalized growth |
| --- | --- |
| S=C(NC1CCCCC1)N1CCC(c2cnc[nH]2)CC1 | 1.01 (inactive) |
| CC(COc1ccc(/C=C/c2ccccc2)cc1)[N+](C)(C)C (stereo not given) | 1.02 (inactive) |
| O=C(Nc1ccccc1)c1cc([N+](=O)[O-])ccc1Cl | 1.07 (inactive) |
| CCC1(O)CC2CN(CCc3c([nH]c4ccccc34)[C@@](C(=O)OC)(c3cc4c(cc3OC)N(C=O)C3[C@]45CCN4CC=C[C@@](CC)([C@@H](OC(C)=O)[C@]3(O)C(=O)OC)[C@H]45)C2)C1 (stereo not given in full) | 0.979 (inactive) |
| COc1cc2c(cc1OC)[C@@H](c1ccccc1)CN(C)CC2 | 1 (inactive) |
